Source: patent US10292976B2

Quick reference: IC50 at 48 h of the listed items.
Experiment: Cytotoxicity by WST-8 assay, NIH3T3
Format: cell-based
Conditions: mouse, NIH3T3 cells, NIH3T3, 48 hours, 1st measurement
Experimental: After treating various kinds of cells (HEK293T: human embryonic kidney cells; HeLa: human cervical cancer cells; NIH3T3: mouse fibroblast cells; tsNRK: rat kidney cells; and 3Y1: rat fibroblasts) with a metal chelator for 48 hours, the cytotoxicities of the cells were evaluated by WST-8 assay.

{"Compound": "c1ccc(CN(Cc2ccccn2)Cc2ccccn2)nc1", "IC50 at 48 h (nM)": 1800}
{"Compound": "c1ccc(CN(CCN(Cc2ccccn2)Cc2ccccn2)Cc2ccccn2)nc1 [L7, reference compound]", "IC50 at 48 h (nM)": 1660}
